- system: Alpha-2C adrenergic receptor (Homo sapiens) (UniProt P18825)
- Sequence (P18825 whole entry, looked up): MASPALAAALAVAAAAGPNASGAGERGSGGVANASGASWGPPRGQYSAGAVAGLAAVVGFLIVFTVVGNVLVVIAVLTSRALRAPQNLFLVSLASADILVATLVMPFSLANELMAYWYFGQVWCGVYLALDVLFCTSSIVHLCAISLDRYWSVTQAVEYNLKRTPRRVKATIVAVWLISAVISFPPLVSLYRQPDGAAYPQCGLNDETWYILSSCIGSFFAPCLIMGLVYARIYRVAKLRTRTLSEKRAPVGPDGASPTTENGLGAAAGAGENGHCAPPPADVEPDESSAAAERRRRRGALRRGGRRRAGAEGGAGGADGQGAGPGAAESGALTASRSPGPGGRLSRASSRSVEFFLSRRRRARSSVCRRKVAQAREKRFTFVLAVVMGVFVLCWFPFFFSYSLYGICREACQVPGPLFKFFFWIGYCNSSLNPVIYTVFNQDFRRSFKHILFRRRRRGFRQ
- method_notes: compounds altering alpha2C-coupled GIRK flux – cell-based, HEK293 alpha2C/GIRK1/2, thallium flux, primary screen (AID 624);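 note: slope of fluorescence ratio to pre-addition baseline per second over 15 to 24 s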
- condition_notes: thallium flux BTC fluorescence, at 10 µM, actives lie on both sides
Classify by measured slope: fulfilled if it is equal to or exceeds 0.005, not fulfilled if it is smaller.

>  <compound>
c1ccc2c(c1)sc1nnnn12

>  <label_value>
not fulfilled

$$$$
>  <compound>
CCOC(=O)N1CCN(c2cc(=O)n(-c3cccc(Br)c3)c(=O)[nH]2)CC1

>  <label_value>
fulfilled

$$$$
>  <compound>
Cc1ccc(C)c(NC(=O)CSc2nnc(-c3ccccc3)o2)c1

>  <label_value>
fulfilled

$$$$
>  <compound>
CC(=O)NCc1nc2ccccc2n1C(C)C

>  <label_value>
fulfilled

$$$$
>  <compound>
N#Cc1nc(COc2ccccc2)oc1NCCCn1ccnc1

>  <label_value>
fulfilled

$$$$
>  <compound>
COc1cc(NC2=CC(=O)CC(C)(C)C2)cc(OC)c1

>  <label_value>
fulfilled

$$$$
>  <compound>
COC(=O)c1ccc(NC(=O)CN2CCN(c3ccc(Cl)cc3)CC2)cc1

>  <label_value>
not fulfilled

$$$$
>  <compound>
CCCCNC(=O)C(C#N)c1nc2ccccc2nc1N1CCCC1 (stereo not drawn)

>  <label_value>
not fulfilled

$$$$
>  <compound>
CCOc1ccc(C(C)=O)cc1COc1ccc(-n2cnnn2)cc1

>  <label_value>
not fulfilled

$$$$
>  <compound>
CCC(C)(C)NC(=O)C(c1ccco1)N(C(=O)Cn1nnc2ccccc21)c1ccc2c(c1)OCO2 (stereo not drawn)

>  <label_value>
not fulfilled

$$$$
>  <compound>
COc1ccc(NC(=O)C2CCCN(S(=O)(=O)c3cccc4cccnc34)C2)cc1OC (stereo not drawn)

>  <label_value>
fulfilled

$$$$
>  <compound>
COc1ccc(CCNc2oc(COc3ccccc3Cl)nc2C#N)cc1OC

>  <label_value>
not fulfilled

$$$$
>  <compound>
O=C(O)c1ccc2c3c(ncnc13)-c1ccccc1C2=O

>  <label_value>
not fulfilled

$$$$
>  <compound>
COCCn1c(SCC(=O)Nc2cccc(OC)c2)nnc1-c1ccc(Cl)cc1

>  <label_value>
not fulfilled

$$$$
>  <compound>
CS(=O)(=O)NCC(c1cccnc1)N1CCN(c2ccc(F)cc2)CC1 (stereo not drawn)

>  <label_value>
not fulfilled

$$$$
>  <compound>
COc1ccc(CCNS(=O)(=O)c2ccc3oc(C(=O)O)c(C)c3c2)cc1OC

>  <label_value>
fulfilled

$$$$
>  <compound>
Cn1c(Cc2ccccc2)nnc1SCC(=O)N1CCOCC1

>  <label_value>
fulfilled

$$$$
>  <compound>
CC(=O)NCCc1nc2ccccc2[nH]1

>  <label_value>
fulfilled

$$$$
>  <compound>
CN1CC=C2C(C#N)=C(N)C(C#N)(C#N)C(Cc3ccccc3)C2C1 (stereo not drawn)

>  <label_value>
fulfilled

$$$$
>  <compound>
CCOC(=O)CN1C(=O)C(=O)c2cccc(C)c21

>  <label_value>
fulfilled

$$$$
>  <compound>
COc1cccc(-c2nnc(NC(=O)c3ccccc3Br)o2)c1

>  <label_value>
fulfilled

$$$$
